// IC50 (pM) in TF-1 proliferation assay, human GM-CSF 0.25 ng/ml lookup, one value per entry
Target: human GM-CSF (human, UniProt P04141 18-144)
Sequence (P04141 18-144): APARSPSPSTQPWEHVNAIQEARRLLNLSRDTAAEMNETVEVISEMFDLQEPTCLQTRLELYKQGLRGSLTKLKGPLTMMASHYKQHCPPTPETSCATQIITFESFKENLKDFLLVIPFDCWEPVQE
Experiment: cell-based or functional assay
Just the number please, in pM, no unit attached.

MOR04252 Fab (Fab, V domains shown, Fab with FLAG and 6xHis tags) VH: QVQLVESGGGLVQPGGSLRLSCAASGFTFSSYWMNWVRQAPGKGLEWVSGIENKYAGGATYYAASVKGRFTISRDNSKNTLYLQMNSLRAEDTAVYYCARGFGTDFWGQGTLVTVSS VL: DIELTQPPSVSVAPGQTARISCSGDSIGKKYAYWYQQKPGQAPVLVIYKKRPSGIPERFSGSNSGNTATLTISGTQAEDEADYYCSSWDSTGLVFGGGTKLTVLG | 2010
MOR04350 Fab (Fab, V domains shown, X-cloned Fab (VH of MOR04287 x VL of MOR04302) with FLAG and 6xHis tags) VH: QVQLVESGGGLVQPGGSLRLSCAASGFTFSSYWMNWVRQAPGKGLEWVSGIENKRAGGATFYAASVKGRFTISRDNSKNTLYLQMNSLRAEDTAVYYCARGFGTDFWGQGTLVTVSS VL: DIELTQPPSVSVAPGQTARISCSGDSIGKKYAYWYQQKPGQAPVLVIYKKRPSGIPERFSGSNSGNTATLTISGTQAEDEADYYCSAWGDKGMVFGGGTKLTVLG | 82

Look up IC50 (pM) in TF-1 proliferation assay, human GM-CSF 0.25 ng/ml: MOR04251 Fab (Fab, V domains shown) VH: QVQLVESGGGLVQPGGSLRLSCAASGFTFSSHWMSWVRQAPGKGLEWVSNIWRGPYIYYADSVKGRFTISRDNSKNTLYLQMNSLRAEDTAVYYCARFQGYGGGFDYWGQGTLVTVSS VL: DIELTQPPSVSVAPGQTARISCSGDNLPGKYVHWYQQKPGQAPVLVIYYDSNRPSGIPERFSGSNSGNTATLTISGTQAEDEADYYCQSRTQTTIVFGGGTKLTVLG 463

Look up IC50 (pM) in TF-1 proliferation assay, human GM-CSF 0.25 ng/ml: MOR04302 Fab (Fab, V domains shown, Fab with FLAG and 6xHis tags) VH: QVQLVESGGGLVQPGGSLRLSCAASGFTFSSYWMNWVRQAPGKGLEWVSGISYSGSETYYADSVKGRFTISRDNSKNTLYLQMNSLRAEDTAVYYCARGFGTDFWGQGTLVTVSS VL: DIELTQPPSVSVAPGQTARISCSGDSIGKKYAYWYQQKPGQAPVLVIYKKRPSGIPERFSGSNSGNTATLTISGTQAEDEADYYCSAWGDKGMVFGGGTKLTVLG 10700
